Target: GABA-A receptor; alpha-1/beta-3/gamma-2 (Homo sapiens, UniProt P14867+P18507+P28472)
Sequence (P14867 whole entry): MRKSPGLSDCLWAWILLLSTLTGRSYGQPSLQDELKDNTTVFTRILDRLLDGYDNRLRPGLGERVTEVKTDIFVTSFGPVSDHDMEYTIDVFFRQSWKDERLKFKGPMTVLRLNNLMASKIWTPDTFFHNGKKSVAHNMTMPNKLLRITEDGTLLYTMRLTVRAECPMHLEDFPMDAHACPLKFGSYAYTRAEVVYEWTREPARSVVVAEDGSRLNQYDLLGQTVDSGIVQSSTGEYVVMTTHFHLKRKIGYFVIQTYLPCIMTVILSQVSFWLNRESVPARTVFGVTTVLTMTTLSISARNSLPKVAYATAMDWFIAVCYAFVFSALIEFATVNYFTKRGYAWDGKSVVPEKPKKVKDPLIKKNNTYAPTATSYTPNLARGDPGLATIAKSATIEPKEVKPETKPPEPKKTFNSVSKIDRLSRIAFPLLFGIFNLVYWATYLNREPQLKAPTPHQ
Sequence (P18507 whole entry): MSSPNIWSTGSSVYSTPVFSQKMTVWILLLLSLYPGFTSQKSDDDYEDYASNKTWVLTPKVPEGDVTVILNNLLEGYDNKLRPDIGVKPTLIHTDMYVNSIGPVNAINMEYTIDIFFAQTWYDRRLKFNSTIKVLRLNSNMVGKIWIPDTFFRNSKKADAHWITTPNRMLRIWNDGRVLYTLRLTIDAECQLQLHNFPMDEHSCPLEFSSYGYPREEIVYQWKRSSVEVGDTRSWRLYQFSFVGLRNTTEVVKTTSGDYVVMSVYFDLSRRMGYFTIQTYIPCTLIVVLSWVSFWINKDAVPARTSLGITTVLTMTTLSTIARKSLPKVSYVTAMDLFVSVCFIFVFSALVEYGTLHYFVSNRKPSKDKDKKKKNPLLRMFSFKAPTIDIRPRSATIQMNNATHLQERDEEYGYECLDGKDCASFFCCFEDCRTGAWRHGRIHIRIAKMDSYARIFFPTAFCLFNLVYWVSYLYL
Sequence (P28472 whole entry): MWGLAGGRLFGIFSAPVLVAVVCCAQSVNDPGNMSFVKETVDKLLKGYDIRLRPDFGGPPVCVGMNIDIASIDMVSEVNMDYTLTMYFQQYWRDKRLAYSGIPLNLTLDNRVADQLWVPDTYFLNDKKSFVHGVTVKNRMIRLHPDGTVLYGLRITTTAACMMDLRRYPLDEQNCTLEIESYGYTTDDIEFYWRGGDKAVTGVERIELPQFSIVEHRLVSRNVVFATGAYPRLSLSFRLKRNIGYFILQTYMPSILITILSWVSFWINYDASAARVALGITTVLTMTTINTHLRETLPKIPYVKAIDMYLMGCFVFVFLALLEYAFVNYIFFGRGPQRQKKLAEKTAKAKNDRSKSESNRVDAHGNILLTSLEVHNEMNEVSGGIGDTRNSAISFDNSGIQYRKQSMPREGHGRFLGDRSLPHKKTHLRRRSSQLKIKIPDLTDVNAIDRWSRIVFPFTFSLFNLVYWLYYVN
Test: GABA-modulatory action compound was evaluated on Oocytes expressing recombinant human alpha-1-beta-3-gamma-2L GABA A receptor at concentrations of >=100 micro<M
Type: protein-complex assay
outcome measure: EC50 (µM)
Reply numerically in µM, unit not repeated.

**Query** Please give the measured EC50 for this compound: "CC(C)c1cccc(C(C)C)c1O"
**Result** 4.1

**Query** Proceed to COc1cccc(OC)c1OC(=O)C(C)N1CCc2ccccc2C1 (stereo unspecified)
**Result** 5.5

**Query** Proceed to "CC[C@H](C(=O)Oc1c(OC)cc(C)cc1OC)N(CCOC)CCOC"
**Result** 10

**Query** Proceed to "COc1cccc(OC)c1OC(=O)[C@@H](C)N1CCc2ccccc2C1"
**Result** 4.1

**Query** Proceed to "COc1cccc(OC)c1OC(=O)[C@@H](C)N1CCOCC1.Cl"
**Result** 198
